# Experimental target: T1, integrin β3(P685-F727) transmembrane peptide with C687S (human, UniProt P05106 711-753, C687S)
# T1 chain (looked up): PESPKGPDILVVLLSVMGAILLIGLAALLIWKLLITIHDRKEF
# Assay: ITC
Observed property: KXY

a = ALEERAIPIWVVLVAVLGGLLLLTILVLAMWKVGFFKRNRP (peptide, UniProt P08514 989-1029, looked up) [integrin αIIb(A958-P998) transmembrane peptide with W968V/G972A]
b = ALEERAIAIWVVLVGVLGGLLLLTILVLAMWKVGFFKRNRP (peptide, UniProt P08514 989-1029, looked up) [integrin αIIb(A958-P998) transmembrane peptide with P965A/W968V]
Which of these two has the smaller recorded KXY: a or b ? Identify your pick by its label.
a
